# target.or.test.system: DNA (cytosine-5)-methyltransferase 3B (Homo sapiens)
# procedure.summary: Inhibition of human recombinant DNMT3B expressed in baculovirus infected insect cells by DRONE assay
reported.endpoint: IC50
Please give the number followed by its unit.

Q: For the molecule C[C@@H]1O[C@@H](CC(=O)O)CC2=C1C(=O)c1c(O)cccc1C2=O [NANAFROCIN] , report IC50.
Result: 730 nM

* * *

Each record here notes measured pIC50.
# target.or.test.system: UniProt Q9UBC3
# procedure.summary: Inhibition of human recombinant DNMT3B expressed in baculovirus infected insect cells using CpG site containing internally quenched hairpin oligonucleotide DNA substrate and SAM incubated for 30 mins by kinetic fluorogenic assay
# run.parameters: read-out: IC50
// pIC50 is dimensionless: -log10 of concentration (M)

Q: Write down the reported pIC50 (system: UniProt Q9UBC3) of `O=C(O)[C@H](Cc1c[nH]c2ccccc12)N1C(=O)c2ccccc2C1=O`
Result: 6.05

---
Q: Write down the reported pIC50 (system: UniProt Q9UBC3) of C[C@@H]1O[C@@H](CC(=O)O)CC2=C1C(=O)c1c(O)cccc1C2=O [NANAFROCIN]
Result: 5.82

* * *

# target.or.test.system: DNA (cytosine-5)-methyltransferase 1 (Homo sapiens, UniProt P26358)
# Sequence (P26358 whole entry): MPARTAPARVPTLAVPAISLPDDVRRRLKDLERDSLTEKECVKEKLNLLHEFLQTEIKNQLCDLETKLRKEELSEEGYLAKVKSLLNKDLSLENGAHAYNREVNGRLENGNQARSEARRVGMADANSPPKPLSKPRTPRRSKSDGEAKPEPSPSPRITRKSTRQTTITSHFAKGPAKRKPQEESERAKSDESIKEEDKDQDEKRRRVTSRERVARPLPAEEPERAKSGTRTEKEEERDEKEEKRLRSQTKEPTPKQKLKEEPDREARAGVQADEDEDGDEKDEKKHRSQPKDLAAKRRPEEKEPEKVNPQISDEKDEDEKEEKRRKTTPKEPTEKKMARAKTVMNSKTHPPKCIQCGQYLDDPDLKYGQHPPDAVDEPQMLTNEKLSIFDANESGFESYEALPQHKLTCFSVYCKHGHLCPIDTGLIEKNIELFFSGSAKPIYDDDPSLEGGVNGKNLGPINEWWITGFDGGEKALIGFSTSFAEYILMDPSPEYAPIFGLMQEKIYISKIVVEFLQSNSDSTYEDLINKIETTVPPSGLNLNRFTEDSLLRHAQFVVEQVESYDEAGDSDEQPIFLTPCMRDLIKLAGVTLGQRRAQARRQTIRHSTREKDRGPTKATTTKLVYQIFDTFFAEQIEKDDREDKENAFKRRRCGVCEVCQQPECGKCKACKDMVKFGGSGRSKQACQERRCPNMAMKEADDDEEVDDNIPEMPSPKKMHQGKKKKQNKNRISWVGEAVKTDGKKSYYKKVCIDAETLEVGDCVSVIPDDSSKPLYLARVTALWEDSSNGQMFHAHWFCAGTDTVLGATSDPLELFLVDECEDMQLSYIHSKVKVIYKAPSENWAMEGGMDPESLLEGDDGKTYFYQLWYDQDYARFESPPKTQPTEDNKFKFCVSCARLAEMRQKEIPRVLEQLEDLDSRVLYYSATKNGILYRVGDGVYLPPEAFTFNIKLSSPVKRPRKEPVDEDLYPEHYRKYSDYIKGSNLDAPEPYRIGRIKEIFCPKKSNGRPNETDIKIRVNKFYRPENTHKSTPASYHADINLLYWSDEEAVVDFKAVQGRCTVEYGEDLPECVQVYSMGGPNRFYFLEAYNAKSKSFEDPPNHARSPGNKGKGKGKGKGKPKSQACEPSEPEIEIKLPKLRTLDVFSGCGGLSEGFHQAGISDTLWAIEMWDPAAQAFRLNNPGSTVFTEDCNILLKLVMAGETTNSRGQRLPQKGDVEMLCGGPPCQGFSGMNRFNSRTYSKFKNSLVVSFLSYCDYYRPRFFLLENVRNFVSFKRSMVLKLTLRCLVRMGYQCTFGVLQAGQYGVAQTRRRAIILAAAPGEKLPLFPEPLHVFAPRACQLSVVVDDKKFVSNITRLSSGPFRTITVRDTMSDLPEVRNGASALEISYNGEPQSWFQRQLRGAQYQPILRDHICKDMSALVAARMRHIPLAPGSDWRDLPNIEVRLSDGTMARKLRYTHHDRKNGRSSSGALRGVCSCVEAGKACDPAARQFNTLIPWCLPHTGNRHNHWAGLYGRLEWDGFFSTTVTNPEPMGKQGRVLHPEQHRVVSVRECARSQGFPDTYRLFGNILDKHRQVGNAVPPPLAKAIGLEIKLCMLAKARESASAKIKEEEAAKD
# procedure.summary: Inhibition of human recombinant DNMT1 expressed in baculovirus infected insect cells using CpG site containing internally quenched hairpin oligonucleotide DNA substrate and SAM incubated for 30 mins by kinetic fluorogenic assay
reported.endpoint: pIC50
// pIC50 is dimensionless: -log10 of concentration (M)

Q: For the molecule `Cc1ccc2c(=O)c(-c3nc(-c4cccc(F)c4)no3)cn(CC(=O)Nc3ccc4c(c3)OCO4)c2n1` , report pIC50.
Result: 4.55

---
Q: For the molecule `O=C(CSc1ncnc2sccc12)N1CCN(Cc2cc(=O)n3ccsc3n2)CC1` , report pIC50.
Result: 4.57

* * *

# procedure.summary: Cytotoxicity in African green monkey Vero cells assessed as reduction in cell viability
# Format: cell-based
# run.parameters: chlorocebus sabaeus
reported.endpoint: CC50 (nM)
# unit: nM | format: bare number

Q: For the compound `C[C@@H]1O[C@@H](CC(=O)O)CC2=C1C(=O)c1c(O)cccc1C2=O` , report CC50.
Result: 700
